Taken from ChEMBL document CHEMBL1148785.

# Test system: Plasmodium falciparum
# test-summary: Inhibition of Plasmodium falciparum protein farnesyltransferase at 50 nM by scintillation proximity assay
// reported inhibition for each item listed
Record the value in %, omitting the unit from your answer.

Below, each entry is followed by its recorded inhibition result.
- COC(=O)N1CCC(CN(C2Cc3cc(C#N)ccc3N(Cc3cncn3C)C2)S(=O)(=O)c2cccc(F)c2)CC1 (configuration not stated): 93
- Cn1cncc1CN1CC(N(Cc2ccc(S(C)(=O)=O)cc2)S(=O)(=O)c2ccccn2)Cc2cc(C#N)ccc21 (configuration not stated): 96

## Task Please give the measured inhibition for this compound: CCOC(=O)N1CCC(CN(C2Cc3cc(C#N)ccc3N(Cc3cncn3C)C2)S(=O)(=O)c2cn(C)cn2)CC1 (configuration not stated)
## Result 98

## Task Please give the measured inhibition for this compound: CC(C)C(=O)N1CCC(CN(C2Cc3cc(C#N)ccc3N(Cc3cncn3C)C2)S(=O)(=O)c2ccccn2)CC1 (configuration not stated)
## Result 98

## Task Please give the measured inhibition for this compound: COC(=O)N1CCC(CN(C2Cc3cc(C#N)ccc3N(Cc3cncn3C)C2)S(=O)(=O)CS(C)(=O)=O)CC1 (configuration not stated)
## Result 15

## Task Please give the measured inhibition for this compound: COC(=O)N1CCC(CN(C2Cc3cc(C#N)ccc3N(Cc3cncn3C)C2)S(=O)(=O)c2ncn(C)c2C)CC1 (configuration not stated)
## Result 100

## Task Please give the measured inhibition for this compound: Cn1cncc1CN1CC(N(Cc2cccc3cccnc23)S(=O)(=O)c2ccccn2)Cc2cc(C#N)ccc21 (configuration not stated)
## Result 88

## Task Please give the measured inhibition for this compound: Cn1cncc1CN1CC(N(CC2CCN(C(=O)N3CCCCC3)CC2)S(=O)(=O)c2ccccn2)Cc2cc(C#N)ccc21 (configuration not stated)
## Result 94

---

// reported pEC50 for each item listed
# Test system: Plasmodium falciparum
# test-summary: Antimalarial activity against Plasmodium falciparum K1
# Format: functional
# condition-set: Plasmodium falciparum, K1; read-out: ED50 (the source's name)
pEC50: −log10 of the molar value.

Below, each entry is followed by its recorded pEC50 result.
- Cn1cncc1CN1CC(N(CCN)S(=O)(=O)c2ccccn2)Cc2cc(C#N)ccc21 (stereo not drawn): < 5.30
- CC(=O)Nc1nc(C)c(S(=O)(=O)N(CC(=O)NC(C)(C)C)C2Cc3cc(C#N)ccc3N(Cc3cncn3C)C2)s1 (stereo not drawn): < 5.30

Okay, next one:
## Task Please give the measured pEC50 for this compound: Cn1cnc(S(=O)(=O)N(CC2CCNCC2)C2Cc3cc(C#N)ccc3N(Cc3cncn3C)C2)c1 (stereo not drawn)
## Result < 5.30

---

# Test system: Plasmodium falciparum
# test-summary: Inhibition of Plasmodium falciparum protein farnesyltransferase at 5 nM by scintillation proximity assay
Cut-off 40% on inhibition, inclusive. At or above means satisfied; below means not satisfied.

The examples below pair each entry with its known result.
• Cn1cncc1CN1CC(N(CCN)S(=O)(=O)c2ccccn2)Cc2cc(C#N)ccc21 (configuration not stated) = not satisfied
• Cn1cncc1CN1CC(N(Cc2ccc(Br)cc2)S(=O)(=O)c2ccccn2)Cc2cc(C#N)ccc21 (configuration not stated) = not satisfied
• COC(=O)N1CCC(CN(C2Cc3cc(C#N)ccc3N(Cc3cncn3C)C2)S(=O)(=O)c2cccc(F)c2)CC1 (configuration not stated) = satisfied
• Cn1cncc1CN1CC(N(CC(=O)NC(C)(C)C)S(=O)(=O)c2nccn2C)Cc2cc(C#N)ccc21 (configuration not stated) = not satisfied

## Task Check if inhibition >= 40% (inclusive). Item: CC(C)C(=O)N1CCC(CN(C2Cc3cc(C#N)ccc3N(Cc3cncn3C)C2)S(=O)(=O)c2ccccn2)CC1 (configuration not stated)
## Result not satisfied

## Task Check if inhibition >= 40% (inclusive). Item: Cc1c(S(=O)(=O)N(CC2CCN(C(=O)OC(C)(C)C)CC2)C2Cc3cc(C#N)ccc3N(Cc3cncn3C)C2)ncn1C (configuration not stated)
## Result satisfied

## Task Check if inhibition >= 40% (inclusive). Item: Cn1cncc1CN1CC(N(CC(N)=O)S(=O)(=O)c2ccccn2)Cc2cc(C#N)ccc21 (configuration not stated)
## Result not satisfied
